The compounds listed here are annotated with their IC50.
# measured_target: PD-L1 (Homo sapiens (Human))
# Sequence (Q9NZQ7 19-290): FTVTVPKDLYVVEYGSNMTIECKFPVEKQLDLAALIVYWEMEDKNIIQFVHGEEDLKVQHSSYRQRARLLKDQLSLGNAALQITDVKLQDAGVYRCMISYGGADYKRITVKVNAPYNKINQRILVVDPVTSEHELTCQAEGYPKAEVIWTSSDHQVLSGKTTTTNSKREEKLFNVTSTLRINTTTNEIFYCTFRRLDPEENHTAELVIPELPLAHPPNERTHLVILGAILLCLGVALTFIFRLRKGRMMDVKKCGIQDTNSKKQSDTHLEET
# assay_remarks: PD-L1 whole blood internalization assay
# recorded_conditions: PD-L1 internalization in human whole blood, CD14+ cells, interferon γ, 24 hour
Numbers only; they are read as nM.

Example cases with answers are listed next.
Query block: Which IC50 is listed for `Cc1c(Nc2nc(C(F)F)nc3cc(CN[C@@H]4CCC[C@@H]4O)cnc23)cccc1-c1cccc(NC(=O)c2nc3c(n2C)CCN(CCC24CCC(C(=O)O)(CC2)C4)C3)c1Cl` ?
Result block: 6.4

Query block: Okay, and `Cn1c(C(=O)Nc2cccc(-c3cccc(NC(=O)c4nc5c(n4C)CCN(CC46CCC(C(=O)O)(CC4)C6)C5)c3Cl)c2Cl)nc2c1CCN(CCO)C2` ?
Result block: 166

Query block: Okay, and `Cc1c(Nc2nc(C(F)F)nc3cc(CN4CC[C@@H](O)C4)cnc23)cccc1-c1cccc(NC(=O)c2nc3c(n2C)CCN(CCC24CCC(C(=O)O)(CC2)C4)C3)c1Cl` ?
Result block: 7.9

Query block: Okay, and `Cc1c(-c2nc3cc(CN4CC[C@@H](O)C4)cc(C#N)c3o2)cccc1-c1cccc(NC(=O)c2nc3c(n2C)CCN(CC24CCC(C(=O)O)(CC2)C4)C3)c1Cl` ?
Result block: 121

Please look at the following compound next.
Query block: Which IC50 is listed for `Cc1c(Nc2nc(C(F)F)nc3cc(CN4C[C@H](O)C[C@H]4C)cnc23)cccc1-c1cccc(NC(=O)c2nc3c(n2C)CCN(CCC24CCC(C(=O)O)(CC2)C4)C3)c1Cl` ?
Result block: 27

Entry source: patent US11401279B2
